Reference source: patent US20160296499A1

Field: pKi. Provide a value for each of the compounds that follow.
biological target: bovine vesicular acetylcholine transporter (VAChT) (Bos taurus); experiment: Radioligand Binding Assay; settings: Bovine binding Ki, CHO-K1 membranes with recombinant bovine VAChT, [3H]Compound X6 0.3 nM
Sequence (E1BK36 1-524): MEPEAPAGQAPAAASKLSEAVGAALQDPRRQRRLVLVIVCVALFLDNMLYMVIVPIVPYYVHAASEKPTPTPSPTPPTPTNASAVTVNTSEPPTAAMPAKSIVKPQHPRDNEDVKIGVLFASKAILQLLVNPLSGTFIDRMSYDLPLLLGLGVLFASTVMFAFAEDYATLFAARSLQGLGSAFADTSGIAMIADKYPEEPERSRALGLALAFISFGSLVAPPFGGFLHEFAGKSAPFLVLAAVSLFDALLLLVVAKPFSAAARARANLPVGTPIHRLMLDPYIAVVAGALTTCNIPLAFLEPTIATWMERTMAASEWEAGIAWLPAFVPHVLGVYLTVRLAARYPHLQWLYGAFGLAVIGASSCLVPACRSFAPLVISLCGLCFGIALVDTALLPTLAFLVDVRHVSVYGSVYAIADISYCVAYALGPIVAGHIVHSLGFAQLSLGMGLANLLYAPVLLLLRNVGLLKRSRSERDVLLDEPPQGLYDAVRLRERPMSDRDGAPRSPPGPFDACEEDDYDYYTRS
Remember the convention: pKi equals -log10 of concentration in molar.

Using the record for O=C(NCc1ccnc(Cl)c1)N1CC2(CCN(C/C=C/c3ccc(Cl)cc3)CC2)c2cc(OC(F)(F)F)ccc21 [Example 147] , state its measured pKi.
6.49

Using the record for O=C(NCc1ccnc(F)c1)N1CC2(CCN(C/C=C/c3ccc(Cl)cc3)CC2)c2cc(F)c(Cl)cc21 [Example 69] , state its measured pKi.
7.26

Using the record for O=C(NCc1ccnc(F)c1)N1CC2(CCN(C/C=C/c3ccc(Cl)cc3)CC2)c2cc(C3CC3)ccc21 [Example 84] , state its measured pKi.
6.17

Using the record for O=C(NCc1ccnc(F)c1)N1CC2(CCN(C/C=C/c3ccc(Cl)cc3)CC2)c2c(OC(F)(F)F)ccc(Cl)c21 [Example 148] , state its measured pKi.
5.61

Using the record for N#Cc1ccc2c(c1)C1(CCN(C/C=C/c3ccc(Cl)c(Cl)c3)CC1)CN2C(=O)NCc1ccnc(F)c1 [Example 113] , state its measured pKi.
7.18

Using the record for O=C(NCc1ccnc(F)c1)N1CC2(CCN(C/C=C/c3ccc(Cl)cc3)CC2)c2ccc(OC(F)(F)F)cc21 [Example 127] , state its measured pKi.
7.11

Using the record for CN(Cc1ccnc(Cl)c1)C(=O)N1CC2(CCN(C/C=C/c3ccc(Cl)cc3)CC2)c2cc(Cl)ccc21 [Example 188] , state its measured pKi.
6.77

Using the record for O=C(NCc1ccccc1)N1CC2(CCN(C/C=C/c3ccc(Cl)c(Cl)c3)CC2)c2c1ccc1scnc21 [Example 15] , state its measured pKi.
6.21

Using the record for N#Cc1ccc(-c2ccc3c(c2)C2(CCN(C/C=C/c4ccc(Cl)cc4)CC2)CN3C(=O)NCc2ccnc(F)c2)cn1 [Example 109] , state its measured pKi.
7.29

Using the record for Cc1ccc2c(c1)C1(CCN(C/C=C/c3ccc(Cl)c(Cl)c3)CC1)CN2C(=O)NCc1ccnc(Cl)c1 [Example 123] , state its measured pKi.
7.68

Using the record for COc1ccc(/C=C/CN2CCC3(CC2)CN(C(=O)NCc2ccnc(Cl)c2)c2ccc4scnc4c23)cc1 [Example 42] , state its measured pKi.
7.26

Using the record for O=C(NCc1ccnc(Cl)c1)N1CC2(CCN(C/C=C/c3ccc(Cl)cc3)CC2)c2c1ccc(F)c2Cl [Example 140] , state its measured pKi.
7.02

Using the record for O=C(NCc1ccnc(Cl)c1)N1CC2(CCN(C/C=C/c3ccc(C(F)(F)F)cn3)CC2)c2ccc(C(F)(F)F)cc21 [Example 124] , state its measured pKi.
6.97

Using the record for O=C(NCc1ccncc1)N1CC2(CCN(C/C=C/c3ccc(Cl)c(Cl)c3)CC2)c2c1ccc1scnc21 [Example 13] , state its measured pKi.
6.42
